Please find below pKi data on 5-hydroxytryptamine receptor 1A (Homo sapiens) compiled from the literature.
# subject-of-test: 5-hydroxytryptamine receptor 1A (Homo sapiens)
# Sequence (P08908 whole entry): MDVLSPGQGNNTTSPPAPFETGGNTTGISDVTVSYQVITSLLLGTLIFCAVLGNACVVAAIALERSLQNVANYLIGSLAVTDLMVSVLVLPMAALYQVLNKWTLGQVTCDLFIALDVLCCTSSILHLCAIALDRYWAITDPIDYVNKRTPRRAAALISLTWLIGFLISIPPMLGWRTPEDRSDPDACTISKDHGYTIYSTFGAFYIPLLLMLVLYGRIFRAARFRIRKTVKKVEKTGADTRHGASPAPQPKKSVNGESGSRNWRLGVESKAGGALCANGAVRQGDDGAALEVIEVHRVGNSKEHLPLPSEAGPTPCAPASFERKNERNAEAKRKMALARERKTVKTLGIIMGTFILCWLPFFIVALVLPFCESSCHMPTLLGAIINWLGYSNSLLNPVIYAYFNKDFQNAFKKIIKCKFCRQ
pKi: −log10 of the molar value.

compound | pKi
CCC(Oc1cccc(Cl)c1Cl)c1nc(Nc2ccccc2)nc(N2CCN(C)CC2)n1 (stereo not given) | 5.34
Cc1ccc(OC(CCN2CCN(c3ccc(Cl)cc3)CC2)c2ccccc2)cc1 (stereo not given) | 5.84
COc1ccc(CN2CCN(CCOc3cccc4nc(C)ccc34)CC2)cc1[N+](=O)[O-] | 6.40
Cc1sc2nc(CCCCCN3CCN(c4cccc(Cl)c4)CC3)[nH]c(=O)c2c1C | 6.94
COc1cccc(CCc2ccccc2OCc2cccnc2)c1 | 5.30
COc1ccccc1OCCNC[C@H]1OCCO[C@@H]1c1ccccc1 (relative stereo) | 8.02
CC(C)(C)c1ccccc1OCCN1CCC(NS(=O)(=O)c2ccc(F)cc2)CC1 | 5.34
Cc1ccc2c(OCCN3CCC(Cc4ccc5c(c4)NC(=O)CO5)CC3)ccc(F)c2n1 | 7.70
O=C1Nc2ccccc2C12CCN(CCCN1CCN(c3ccc(Cl)cc3)CC1)C2 (stereo not given) | 5.54
CN1CCN(Cc2cccc3c(=O)c4ccc(Cl)cc4oc23)CC1.Cl.Cl.Cl | 4.87
COc1ccccc1N1CCN(CC(F)CCNC(=O)c2ccc(-c3ccccn3)cc2)CC1 (stereo not given) | 7.31
COc1cccc(N2CCN(CCCCNC(=O)c3cc4ccccc4o3)CC2)c1 | 7.77
O=C1COc2ccc(CCN3CCN(c4nccc5ccccc45)CC3)cc2N1 | 7.00
CN(C)CCc1c[nH]c2ccc(CS(=O)(=O)N(C)Cc3ccc(CN(C)S(=O)(=O)Cc4ccc5[nH]cc(CCN(C)C)c5c4)cc3)cc12 | 7.75
CC(C)c1ccccc1OCCN1CCC(NS(=O)(=O)c2cc(F)ccc2F)CC1 | 6.68
COc1cc2ncnc(N3CCC(CN4CCN(c5cccc(Cl)c5Cl)CC4)C3)c2cc1OC (stereo not given) | 7.97
Cc1cccc(F)c1Oc1ncccc1C1CCNCC1 | 8.00
Cl.O=C(Nc1ccc2[nH]nc(S(=O)(=O)c3cccc4ccccc34)c2c1)C1CCNCC1 | 5.52
COc1cccc2sc([C@H]3CCN(C[C@H](O)COc4cccc5[nH]c(C)cc45)[C@H](C)C3)cc12 | 7.55
CC(C)c1ccc(S(=O)(=O)c2n[nH]c3ccc(NC4CCNCC4)cc23)cc1.Cl | 6.07
